# system: Cdc7/Dbf4 (Homo sapiens)
# Sequence (O00311 whole entry): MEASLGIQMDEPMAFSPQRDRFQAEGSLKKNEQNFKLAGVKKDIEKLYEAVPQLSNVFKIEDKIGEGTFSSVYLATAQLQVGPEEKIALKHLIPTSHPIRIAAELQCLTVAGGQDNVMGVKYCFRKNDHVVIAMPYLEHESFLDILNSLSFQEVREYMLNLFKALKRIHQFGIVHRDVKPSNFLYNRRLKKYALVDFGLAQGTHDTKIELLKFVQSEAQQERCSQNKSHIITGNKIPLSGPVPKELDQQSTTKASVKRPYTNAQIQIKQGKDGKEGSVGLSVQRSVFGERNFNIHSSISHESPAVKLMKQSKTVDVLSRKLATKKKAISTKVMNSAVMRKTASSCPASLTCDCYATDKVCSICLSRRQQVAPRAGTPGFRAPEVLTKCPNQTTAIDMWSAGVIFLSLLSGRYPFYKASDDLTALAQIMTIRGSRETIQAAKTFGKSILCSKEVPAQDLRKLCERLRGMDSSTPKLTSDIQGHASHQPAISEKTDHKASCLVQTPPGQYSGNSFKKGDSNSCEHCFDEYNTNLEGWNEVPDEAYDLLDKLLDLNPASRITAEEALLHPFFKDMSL
# Sequence (Q9UBU7 whole entry partner): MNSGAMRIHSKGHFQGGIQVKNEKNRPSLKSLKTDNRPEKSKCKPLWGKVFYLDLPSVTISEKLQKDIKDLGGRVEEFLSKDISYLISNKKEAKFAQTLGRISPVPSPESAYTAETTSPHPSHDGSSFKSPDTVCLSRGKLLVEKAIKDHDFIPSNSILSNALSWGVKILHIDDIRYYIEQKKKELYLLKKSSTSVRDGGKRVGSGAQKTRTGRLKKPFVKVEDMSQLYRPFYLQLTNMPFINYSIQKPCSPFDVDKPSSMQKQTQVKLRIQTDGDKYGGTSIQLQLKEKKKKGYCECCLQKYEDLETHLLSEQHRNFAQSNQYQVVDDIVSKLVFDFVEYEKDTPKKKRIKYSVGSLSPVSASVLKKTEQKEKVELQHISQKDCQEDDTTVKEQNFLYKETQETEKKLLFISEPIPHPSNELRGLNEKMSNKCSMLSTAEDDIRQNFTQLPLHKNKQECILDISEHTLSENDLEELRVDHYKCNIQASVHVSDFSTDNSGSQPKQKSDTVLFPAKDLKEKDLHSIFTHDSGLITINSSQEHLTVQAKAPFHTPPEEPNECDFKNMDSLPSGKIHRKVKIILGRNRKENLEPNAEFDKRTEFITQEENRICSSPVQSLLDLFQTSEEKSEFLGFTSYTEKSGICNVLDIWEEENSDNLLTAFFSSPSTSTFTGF
# test_description: Cdc7 biochemical assay Method 2: Cdc7/Dbf4 Enzyme TR-FRET Assay measuring pS40MCM2
# study_conditions: pS40 MCM2 peptide, 1 μM ATP, 25° C., 120 minutes, read-out: Biochemical Method 2 (pIC50) (converted)
measured_property: log10(IC50) (log10 of the value in nM)

compound	log10(IC50)
Cc1ncsc1-c1nc(C2CCOCC2)c(Cl)c(=O)[nH]1 [Compound 6]	0.29
O=c1[nH]c(-c2c[nH]c3ncccc23)nc(N2CCNCC(F)(F)C2)c1Cl [Compound 52]	0.85
C[C@@H]1COCCN1c1nc(-c2c[nH]c3ncccc23)[nH]c(=O)c1Cl [Compound 53]	0.11
Cc1ncsc1-c1nc(N2CCN[C@@H](C(C)C)C2)c(Cl)c(=O)[nH]1 [Compound 39]	0.87
Cc1[nH]ncc1-c1nc(C2CCOCC2)c(Cl)c(=O)[nH]1 [Compound 16]	0.86
C[C@@H]1COCCN1c1nc(-c2cn[nH]c2C(F)(F)F)[nH]c(=O)c1Cl [Compound 41]	-0.08
CC1(C)CNCCN1c1nc(-c2cn[nH]c2C(F)(F)F)[nH]c(=O)c1Cl [Compound 46]	0.22
C[C@@H]1COCCN1c1nc(-c2cnn3ccccc23)[nH]c(=O)c1Cl [Compound 54]	1.86
O=c1[nH]c(-c2cn[nH]c2C(F)(F)F)nc(N2CCNCC(F)(F)C2)c1Cl [Compound 45]	0.29
